Field: IC50. Provide a value for each of the compounds that follow.
Test system: P. falciparum 3D7 growth, pLDH absorbance
assay: blood-stage malaria parasite growth potency – strain 3D7, dose response (AID 2305)
Express your answer as a number followed by its unit.

Give IC50 for each listed item.
1. COc1cccc(C(=O)Nc2ccc(-c3nc4ccccc4[nH]3)cc2)c1
2. Cc1cc(NN=Cc2ccc(F)cc2)c2ccc(C(F)(F)F)cc2n1
3. Cn1nc(C(F)(F)F)c(-c2ccc(F)cc2)c1NC(=O)Nc1ccccc1
4. Cc1ccccc1NC(=O)C1CSCN1C(=O)OCc1ccccc1 (stereo not given)
5. CCNc1cc(C(=O)N[C@@H](Cc2ccccc2)[C@H](O)CN[C@@H]2CCc3ccccc32)cc(N2CCCC2=O)c1

1. 800 nM
2. 820 nM
3. 800 nM
4. 980 nM
5. 1020 nM
